Hello, the source for this data is ChEMBL document CHEMBL1140657, in case you need it.

- target.or.test.system: Serine/threonine-protein kinase B-raf (Homo sapiens)
- Sequence (P15056 whole entry): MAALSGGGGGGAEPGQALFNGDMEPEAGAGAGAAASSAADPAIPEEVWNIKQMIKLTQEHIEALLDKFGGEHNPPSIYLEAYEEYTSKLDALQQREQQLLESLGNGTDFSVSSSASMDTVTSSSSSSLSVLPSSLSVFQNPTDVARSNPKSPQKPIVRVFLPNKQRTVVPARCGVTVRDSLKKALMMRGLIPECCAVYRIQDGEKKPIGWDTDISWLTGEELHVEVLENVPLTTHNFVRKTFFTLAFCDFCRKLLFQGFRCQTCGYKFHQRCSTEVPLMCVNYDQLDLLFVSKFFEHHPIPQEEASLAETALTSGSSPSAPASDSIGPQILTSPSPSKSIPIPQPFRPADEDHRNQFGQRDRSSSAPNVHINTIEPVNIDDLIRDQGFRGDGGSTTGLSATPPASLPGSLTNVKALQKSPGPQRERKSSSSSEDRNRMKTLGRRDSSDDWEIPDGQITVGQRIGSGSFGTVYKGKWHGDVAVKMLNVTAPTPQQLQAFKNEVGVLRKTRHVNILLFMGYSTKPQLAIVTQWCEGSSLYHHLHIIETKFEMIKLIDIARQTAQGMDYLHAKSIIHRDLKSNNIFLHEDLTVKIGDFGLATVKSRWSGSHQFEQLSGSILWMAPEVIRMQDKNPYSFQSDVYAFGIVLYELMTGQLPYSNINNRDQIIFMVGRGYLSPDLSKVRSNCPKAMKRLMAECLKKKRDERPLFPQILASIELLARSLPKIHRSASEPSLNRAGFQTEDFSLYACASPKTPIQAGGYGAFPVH
# IC50 values compiled below

cpd.smiles	target.or.test.system	IC50, nM
CCN(CC)CCNC(=O)c1cc(CNc2ccccc2C(=O)Nc2ccc3c(c2)OC(F)(F)O3)ccn1	Serine/threonine-protein kinase B-raf (Homo sapiens)	138
CN(C)c1nccc(CNc2ccccc2C(=O)Nc2ccc3c(c2)OC(F)(F)O3)n1	Serine/threonine-protein kinase B-raf (Homo sapiens)	349
O=C(Nc1ccc2c(c1)OC(F)(F)O2)c1ccccc1NCc1ccnc(NCCCn2ccnc2)c1	Serine/threonine-protein kinase B-raf (Homo sapiens)	101
N#Cc1cc(CNc2ccccc2C(=O)Nc2ccc3c(c2)OC(F)(F)O3)ccn1	Serine/threonine-protein kinase B-raf (Homo sapiens)	110
CNC(=O)c1cc(CNc2ncsc2C(=O)Nc2ccc3c(c2)OC(F)(F)O3)ccn1	Serine/threonine-protein kinase B-raf (Homo sapiens)	1240
O=C(Nc1ccc2c(c1)OC(F)(F)O2)c1ccccc1NCc1ccnc(C2=NCCN2)c1	Serine/threonine-protein kinase B-raf (Homo sapiens)	153
CNC(=O)Nc1ccc(CNc2c(C(=O)Nc3ccc(SC(F)(F)F)cc3)cnn2C)cn1	Serine/threonine-protein kinase B-raf (Homo sapiens)	154
